Cited source: patent US6482815B1

ASSAY_READOUT: melting point

Worked cases, melting point given:
[
  {
    "SMILES_STRUCTURE": "COc1cc2ncnc(Nc3ccc([As](=O)(O)O)cc3)c2cc1OC",
    "melting point": "> 300 °C"
  },
  {
    "SMILES_STRUCTURE": "Nc1nc(N)nc(Nc2ccc(N=Nc3ccc([As](=O)(O)O)cc3)cc2)n1",
    "melting point": "> 300 °C"
  }
]

Would you kindly look at the next entry?
// melting point lookup, key: `CSc1nccc(Nc2ccccc2[As](=O)(O)O)n1`
225 to 228 °C
